Test system: CCRF-CEM leukemia
Assay: NCI-60 one-dose screen, 48 h
Conditions: 10 µM unless noted
Protocol: Growth inhibition of the CCRF-CEM human tumor cell line is measured as a screen for anti-cancer activity. Cells are grown in 96 well plates and exposed to the test compound for 48 hours. Compounds are tested at a single concentration, which is 10^-5 M for most compounds. The reported endpoint is percent growth (GI% or GIPRCNT), where numbers from 0 - 100% represent growth inhibition, and numbers from -100% - 0 represent cell death. For example, a value of 40 represents 60% growth inhibition. […]
The panel holds about 83,000 compounds, 20% with a hit somewhere; the sample as a whole holds those more often. Activity calls are given as the source filed them. How the source made its calls: active means growth percent below 10; inactive means the rest.
Tick one outcome: active, inactive

MOLECULE: COc1ccc2c(c1)C(=O)c1c-2c(OCCN(C)C)nc2cc(OC)ccc12
ASSIGNED_CATEGORY: inactive
--
MOLECULE: COc1cc(/C=C2\COc3ccc(O)cc3C2=O)cc(OC)c1
ASSIGNED_CATEGORY: active

Name the outcome recorded for `CC[C@H](C)C(=O)O[C@H]1C[C@@H](C)C=C2C=C[C@H](C)[C@H](CC[C@@H]3C[C@@H](O)CC(=O)O3)[C@H]21` in the assay.
inactive

Numbers sourced from PubChem BioAssay (NCI).
